Reported values of Ki for individual entries
TARGET_ENTITY: UniProt:P41145
Sequence (P41145 whole entry): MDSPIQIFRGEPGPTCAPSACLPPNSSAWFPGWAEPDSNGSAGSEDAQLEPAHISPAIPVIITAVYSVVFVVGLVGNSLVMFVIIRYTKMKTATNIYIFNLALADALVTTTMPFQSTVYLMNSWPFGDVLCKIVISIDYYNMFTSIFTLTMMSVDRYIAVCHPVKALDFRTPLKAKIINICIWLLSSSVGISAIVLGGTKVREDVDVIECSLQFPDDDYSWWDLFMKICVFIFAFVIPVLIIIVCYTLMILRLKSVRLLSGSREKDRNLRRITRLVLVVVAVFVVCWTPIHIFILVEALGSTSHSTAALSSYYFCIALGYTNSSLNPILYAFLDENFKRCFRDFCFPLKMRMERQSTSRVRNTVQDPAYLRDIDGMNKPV
EXPERIMENTAL_PROTOCOL: Binding affinity towards cloned human Opioid receptor kappa 1 in CHO cell membranes.
Assay type: cell-based
Use nM as the unit, but write only the number.

CC[C@H](C)[C@H](NC(=O)[C@H](CCCN=C(N)N)NC(=O)[C@H](CCCN=C(N)N)NC(=O)[C@H](CC(C)C)NC(=O)[C@H](Cc1ccccc1)NC(=O)[C@@H]1CCCN1C(=O)CNC(=O)[C@@H](N)Cc1ccc(O)cc1)C(=O)N[C@@H](CCCN=C(N)N)C(=O)N1CCC[C@H]1C(=O)N[C@@H](CCCCN)C(N)=O    2.7

Continue with the molecule presented below.
The molecule `CC[C@H](C)[C@H](NC(=O)[C@H](CCCNC(=N)N)NC(=O)[C@H](CCCNC(=N)N)NC(=O)[C@H](CC(C)C)NC(=O)[C@H](Cc1ccccc1)NC(=O)[C@@H](C)NC(=O)CNC(=O)[C@@H](N)Cc1ccc(O)cc1)C(=O)N[C@@H](CCCNC(=N)N)C(=O)N1CCC[C@H]1C(=O)N[C@@H](CCCCN)C(N)=O` , when measured on UniProt:P41145, yielded Ki of 0.15
